Test system: MCF7
Protocol details: Cytotoxicity against human MCF7 cells after 72 hrs by MTT assay
Type: functional, cell-based
Measurement conditions: MCF7, 72 h
Attribute measured: pIC50
# pIC50: negative log10 of molar concentration; output just the value

Known value: MCF7 pIC50 of the compound `COc1ccc2nc3cc(Cl)ccc3c(NCCNC(=O)C[C@H]3O[C@@H]4O[C@@]5(C)CC[C@H]6[C@H](C)CC[C@@H]([C@H]3C)[C@@]46OO5)c2c1` equals 4.86

Known value: MCF7 pIC50 of the compound `COc1ccc2nc3cc(Cl)ccc3c(NCCCNC(=O)C[C@H]3O[C@@H]4O[C@@]5(C)CC[C@H]6[C@H](C)CC[C@@H]([C@H]3C)[C@@]46OO5)c2c1` equals 4.93

Known value: MCF7 pIC50 of the compound `C[C@H]1[C@@H](O)O[C@@H]2O[C@@]3(C)CC[C@H]4[C@H](C)CC[C@@H]1[C@@]24OO3` equals 4.34

Known value: MCF7 pIC50 of the compound `COc1ccc2nc3cc(Cl)ccc3c(NCCCCNC(=O)C[C@H]3O[C@@H]4O[C@@]5(C)CC[C@H]6[C@H](C)CC[C@@H]([C@H]3C)[C@@]46OO5)c2c1` equals 4.93

Known value: MCF7 pIC50 of the compound `COc1ccc2nc3cc(Cl)ccc3c(N3CCN(C(=O)C[C@H]4O[C@@H]5O[C@@]6(C)CC[C@H]7[C@H](C)CC[C@@H]([C@H]4C)[C@@]57OO6)CC3)c2c1` equals 5.45
